A collection of compounds and their measured pIC50
- Test system: HeLa
- testMethodNotes: cells
- conditionLabel: Homo sapiens, 48 h
- Description: Antiproliferative activity against human HeLa cells assessed as inhibition of cell growth measured after 48 hrs by CCK-8 method
pIC50 is defined as minus the log10 of a concentration measured in mol/L.

The examples below pair each entry with its known result.
compound	pIC50
Cc1ncc([N+](=O)[O-])n1CCOC(=O)NC(Nc1ncccn1)C(Cl)(Cl)Cl (stereo not given)	3.70
CCN(CC)c1cc(Cl)nc(NC(NC(=O)OCCn2c([N+](=O)[O-])cnc2C)C(Cl)(Cl)Cl)n1 (stereo not given)	4.41
Cc1ncc([N+](=O)[O-])n1CCOC(=O)NC(Nc1nc(Cl)cc(-c2ccccc2)n1)C(Cl)(Cl)Cl (stereo not given)	4.48
Cc1ncc([N+](=O)[O-])n1CCOC(=O)NC(Nc1nc(Cl)cc(N(C)C)n1)C(Cl)(Cl)Cl (stereo not given)	4.15
Cc1ncc([N+](=O)[O-])n1CCOC(=O)NC(Nc1nc(N)cc(F)n1)C(Cl)(Cl)Cl (stereo not given)	4.18
Cc1ncc([N+](=O)[O-])n1CCOC(=O)NC(Nc1nc(N)cc(Cl)n1)C(Cl)(Cl)Cl (stereo not given)	4.35

Data request: What is its pIC50 for HeLa? Entry: CNc1cc(Cl)nc(NC(NC(=O)OCCn2c([N+](=O)[O-])cnc2C)C(Cl)(Cl)Cl)n1 (stereo not given)
Data returned: 4.14

Data request: What is its pIC50 for HeLa? Entry: Cc1ncc([N+](=O)[O-])n1CCOC(=O)NC(Nc1nc(Cl)cc(Nc2ccccc2)n1)C(Cl)(Cl)Cl (stereo not given)
Data returned: 4.71
